- tgt: human ether-à-go-go-related gene (hERG) potassium channel (human)
- Sequence (Q12809 whole entry, looked up): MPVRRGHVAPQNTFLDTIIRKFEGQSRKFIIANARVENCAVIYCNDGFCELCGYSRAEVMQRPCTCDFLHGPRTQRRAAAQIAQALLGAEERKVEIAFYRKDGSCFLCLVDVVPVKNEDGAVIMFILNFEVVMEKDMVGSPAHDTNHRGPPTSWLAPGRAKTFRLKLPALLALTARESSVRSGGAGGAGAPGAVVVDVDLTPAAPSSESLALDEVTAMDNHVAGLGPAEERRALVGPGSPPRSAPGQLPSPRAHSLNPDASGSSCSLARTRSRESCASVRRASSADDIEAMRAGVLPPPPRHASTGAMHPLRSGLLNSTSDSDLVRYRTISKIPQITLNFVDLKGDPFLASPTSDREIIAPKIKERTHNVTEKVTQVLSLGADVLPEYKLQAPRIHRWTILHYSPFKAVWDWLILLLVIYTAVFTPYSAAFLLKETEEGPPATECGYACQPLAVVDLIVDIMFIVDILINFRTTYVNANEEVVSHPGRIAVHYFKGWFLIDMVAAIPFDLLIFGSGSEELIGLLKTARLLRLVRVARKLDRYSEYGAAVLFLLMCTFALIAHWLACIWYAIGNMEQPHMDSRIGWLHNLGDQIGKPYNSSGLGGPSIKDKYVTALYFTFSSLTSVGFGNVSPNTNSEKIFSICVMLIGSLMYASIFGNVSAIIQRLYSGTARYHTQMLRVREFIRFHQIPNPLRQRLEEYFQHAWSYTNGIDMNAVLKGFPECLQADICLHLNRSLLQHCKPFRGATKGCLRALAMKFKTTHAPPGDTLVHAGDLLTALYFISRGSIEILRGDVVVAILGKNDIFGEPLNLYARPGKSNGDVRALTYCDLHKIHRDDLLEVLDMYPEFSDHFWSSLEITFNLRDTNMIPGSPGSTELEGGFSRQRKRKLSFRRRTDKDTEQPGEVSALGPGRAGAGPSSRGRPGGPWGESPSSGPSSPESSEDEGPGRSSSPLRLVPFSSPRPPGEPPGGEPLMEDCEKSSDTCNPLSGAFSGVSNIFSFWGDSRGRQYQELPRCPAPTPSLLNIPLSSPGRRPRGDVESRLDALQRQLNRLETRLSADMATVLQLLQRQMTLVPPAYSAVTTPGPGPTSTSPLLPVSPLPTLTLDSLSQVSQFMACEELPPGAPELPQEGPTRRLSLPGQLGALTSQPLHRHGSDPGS
- assay_notes: primary screen, population patch clamp on CHO cells stably expressing hERG; higher = less effect of the substance;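 further: peak tail current of the secondary pulse compared with the same well before compound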
The campaign covered roughly 310,000 compounds. About 14,000 (4.5%) showed an effect of 50% or more. Effects have a minus sign here. For the sample, strong results were picked, then their nearest neighbours and some compounds at random.
Short version: hERG current change (%, negative = inhibition) at 10uM at least -10% is Fulfilled, less is Not fulfilled.

Consider the following illustrative entries.
>>> assigned_label("O=C(O)CCC(=O)N1CCN(c2ccc(C(=O)c3ccc(F)cc3)cc2)CC1")
"Fulfilled"
>>> assigned_label("O=C1CCC(C(=O)N2CCCC(C(=O)c3ccc4c5c(cccc35)CC4)C2)=NN1 (centres unmarked)")
"Not fulfilled"
>>> assigned_label("COCCC(=O)N1CCCC(C(=O)c2ccc3c4c(cccc24)CC3)C1 (centres unmarked)")
"Not fulfilled"
>>> assigned_label("O=C(c1ccc2c3c(cccc13)CC2)C1CCCN(Cc2cccnc2)C1 (centres unmarked)")
"Not fulfilled"
>>> assigned_label("O=C(c1ccc2c3c(cccc13)CC2)C1CCCN(CC2CC2)C1 (centres unmarked)")
"Not fulfilled"

Does O=C(c1ccc2c3c(cccc13)CC2)C1CCCN(Cc2ccccn2)C1 (centres unmarked) have a reported hERG current change (%, negative = inhibition) at 10uM of at least -10%?
Not fulfilled

Does "Cc1ccc2[nH]c3c(c2c1)CN(C)CC3.Cl" have a reported hERG current change (%, negative = inhibition) at 10uM of at least -10%?
Fulfilled

Does "CCOC(=O)N1CCN(c2c(-c3ccccc3)c3cc(Cl)ccc3[nH]c2=O)CC1" have a reported hERG current change (%, negative = inhibition) at 10uM of at least -10%?
Not fulfilled

Does "Cc1cccc(C)c1NC(=O)C[n+]1cc(-c2ccccc2)n2c1CCC2.[Cl-]" have a reported hERG current change (%, negative = inhibition) at 10uM of at least -10%?
Fulfilled

Does "O=C(CCn1nc(-c2ccccc2)ccc1=O)N1CCN(c2ccccn2)CC1" have a reported hERG current change (%, negative = inhibition) at 10uM of at least -10%?
Not fulfilled

Does "O=C(CCC(=O)N1CCN(c2ccc(F)cc2)CC1)c1ccc(Cl)cc1" have a reported hERG current change (%, negative = inhibition) at 10uM of at least -10%?
Not fulfilled

Does "O=C(CCC(=O)N1CCN(c2ccc(F)cc2)CC1)N1CCN(c2ccc(F)cc2)CC1" have a reported hERG current change (%, negative = inhibition) at 10uM of at least -10%?
Not fulfilled

Does CN(C)C(=O)CCC(=O)N1CCCC(C(=O)c2ccc3c4c(cccc24)CC3)C1 (centres unmarked) have a reported hERG current change (%, negative = inhibition) at 10uM of at least -10%?
Not fulfilled

Does "C=C(C)COc1ccc(-c2[nH]ncc2Oc2ccccc2OC)c(O)c1" have a reported hERG current change (%, negative = inhibition) at 10uM of at least -10%?
Not fulfilled

Does "O=C(CSc1nnc2c(n1)[nH]c1ccc(F)cc12)N1CCOCC1" have a reported hERG current change (%, negative = inhibition) at 10uM of at least -10%?
Fulfilled

Does "O=c1[nH]c2ccc(Cl)cc2c(-c2ccccc2)c1N1CCOCC1" have a reported hERG current change (%, negative = inhibition) at 10uM of at least -10%?
Fulfilled

Does "O=c1[nH]c2ccc(Cl)cc2c(-c2ccccc2)c1N1CCN(CCO)CC1" have a reported hERG current change (%, negative = inhibition) at 10uM of at least -10%?
Not fulfilled

Does "Cc1cc2occ(CC(=O)N(CC(C)C)c3c(N)n(Cc4ccccc4)c(=O)[nH]c3=O)c2cc1C" have a reported hERG current change (%, negative = inhibition) at 10uM of at least -10%?
Not fulfilled

Does "Cc1nn(C(=O)c2cccnc2)c(C)c1C" have a reported hERG current change (%, negative = inhibition) at 10uM of at least -10%?
Fulfilled

Does O=C1CCC(CCC(=O)N2CCCC(C(=O)c3ccc4c5c(cccc35)CC4)C2)=NN1 (centres unmarked) have a reported hERG current change (%, negative = inhibition) at 10uM of at least -10%?
Not fulfilled
